Taken from patent US10890591B2.

- protocol_details: clinical
- particulars: human, in vivo, 7 day
readout_label: Subject C, Urine Results (ng/m)
Answers are plain numbers, in ng/m.

Known Subject C, Urine Results results, listed for orientation:
[[record]]
compound = "CN(C)CCOC(c1ccccc1)c1ccccc1 [Diphenhydramine]"
readout_label = "Subject C, Urine Results"
endpoint_result = 144000

[[record]]
compound = "NC(N)=Nc1nc(CSCCC(N)=NS(N)(=O)=O)cs1 [Famotidine]"
readout_label = "Subject C, Urine Results"
endpoint_result = 122

[[record]]
compound = "Cc1cc2nc3c(=O)[nH]c(=O)nc-3n(C[C@H](O)[C@H](O)[C@H](O)CO)c2cc1C [Riboflavin]"
readout_label = "Subject C, Urine Results"
endpoint_result = 4450

[[record]]
compound = "O=C1O[C@H]([C@@H](O)CO)C(O)=C1O [Ascorbic Acid]"
readout_label = "Subject C, Urine Results"
endpoint_result = 1751


Proceeding to the next compound to report its Subject C, Urine Results.
Quick one: Subject C, Urine Results for CNC(=C[N+](=O)[O-])NCCSCc1ccc(CN(C)C)o1 [Ranitidine] ?
25.2
